# method summary: in vivo
# Type: in vivo, rat
# conditions used: rat, in vivo; male SD rats, IV bolus 1 mg/kg, plasma, NCA, n = 4; read-out: Vss
parameter measured: Vd (L/kg)
Supply the numeric figure in L/kg, leaving out any unit text.

Quick one: Vd of CC[C@H](C)[C@@H]1NC(=O)CNC(=O)[C@@H]2Cc3c([nH]c4cc(O)ccc34)[S@+]([O-])C[C@H](NC(=O)CNC1=O)C(=O)N[C@@H](CC(N)=O)C(=O)N1C[C@H](O)C[C@H]1C(=O)N[C@@H]([C@@H](C)[C@@H](O)CO)C(=O)N2 [α-amanitin] ?
0.409

---

# method summary: In vitro metabolic stability in human liver microsomes
# Assay type: in vitro ADME
# conditions used: human liver microsomes, in vitro half-life, ln2/k from slope of ln(Remaining %) vs incubation time 0-60 min, NADPH, pH 7.4, 37 °C
parameter measured: half-life (h)
Supply the numeric figure in h, leaving out any unit text.

Quick one: half-life of CC[C@H](C)[C@@H]1NC(=O)CNC(=O)[C@@H]2Cc3c([nH]c4cc(O)ccc34)[S@+]([O-])C[C@H](NC(=O)CNC1=O)C(=O)N[C@@H](CC(N)=O)C(=O)N1C[C@H](O)C[C@H]1C(=O)N[C@@H]([C@@H](C)[C@@H](O)CO)C(=O)N2 ?
3.93

---

# method summary: In vitro metabolic stability in rat liver microsomes
# Type: in vitro ADME
# conditions used: rat liver microsomes, 15 min incubation, NADPH regenerating system, potassium phosphate buffer pH 7.4, 37 °C, 5 min pre-incubation, LC-qTOF-MS
# Protocol: In vitro stability of α-amanitin at liver microsomal system was evaluated by a LC-qTOF-MS. The remaining % represents the percentage of the sample (α-amanitin) peak area to the internal standard (verapamil) peak area. The in vitro half-life (T1/2) and the in vitro intrinsic clearance (CLint, in vitro) were calculated by using the slope (k) of the graph shown in Figure 3. The calculation formula is shown in Equations (1) and (2). […]
parameter measured: remaining at 0.25 h
Answer format: number, then unit.

Quick one: remaining at 0.25 h of CC[C@H](C)[C@@H]1NC(=O)CNC(=O)[C@@H]2Cc3c([nH]c4cc(O)ccc34)[S@+]([O-])C[C@H](NC(=O)CNC1=O)C(=O)N[C@@H](CC(N)=O)C(=O)N1C[C@H](O)C[C@H]1C(=O)N[C@@H]([C@@H](C)[C@@H](O)CO)C(=O)N2 ?
94.2%

---

# method summary: Semi-mass balance study in rats
# Assay type: in vivo, rat
# conditions used: Sprague-Dawley, rat, feces; bile duct cannulated rats, IV bolus 1 mg/kg, collection 0–48 h, excreted amount/administered amount, unchanged α-amanitin, LC-qTOF-MS; read-out: Recovery in feces
# Procedure: The excretion characteristic of α-amanitin after IV and PO administration is shown in Table 7, and the time to recovery of α-amanitin profile is shown in Figure 5. The recovery represents the percentage of the excreted amount (mg) to the administrated amount (mg). A semi-mass balance study was performed to explore the major elimination route of α-amanitin in rats. […]
parameter measured: dose excreted

Quick one: dose excreted of CC[C@H](C)[C@@H]1NC(=O)CNC(=O)[C@@H]2Cc3c([nH]c4cc(O)ccc34)[S@+]([O-])C[C@H](NC(=O)CNC1=O)C(=O)N[C@@H](CC(N)=O)C(=O)N1C[C@H](O)C[C@H]1C(=O)N[C@@H]([C@@H](C)[C@@H](O)CO)C(=O)N2 ?
< 0.01%

---

# method summary: in vivo
# Format: in vivo, rat
# conditions used: rat, in vivo; male SD rats, IV bolus 1 mg/kg, plasma, NCA, n = 4
parameter measured: clearance (mL/min/kg)
Supply the numeric figure in mL/min/kg, leaving out any unit text.

Quick one: clearance of CC[C@H](C)[C@@H]1NC(=O)CNC(=O)[C@@H]2Cc3c([nH]c4cc(O)ccc34)[S@+]([O-])C[C@H](NC(=O)CNC1=O)C(=O)N[C@@H](CC(N)=O)C(=O)N1C[C@H](O)C[C@H]1C(=O)N[C@@H]([C@@H](C)[C@@H](O)CO)C(=O)N2 ?
14

---

# method summary: In vitro metabolic stability in human liver microsomes
# Type: in vitro ADME
# conditions used: human liver microsomes, 30 min incubation, NADPH regenerating system, potassium phosphate buffer pH 7.4, 37 °C, 5 min pre-incubation, LC-qTOF-MS
parameter measured: remaining at 0.5 h

Quick one: remaining at 0.5 h of CC[C@H](C)[C@@H]1NC(=O)CNC(=O)[C@@H]2Cc3c([nH]c4cc(O)ccc34)[S@+]([O-])C[C@H](NC(=O)CNC1=O)C(=O)N[C@@H](CC(N)=O)C(=O)N1C[C@H](O)C[C@H]1C(=O)N[C@@H]([C@@H](C)[C@@H](O)CO)C(=O)N2 [α-amanitin] ?
85.1%

---

# method summary: In vitro metabolic stability in rat liver microsomes
# Format: in vitro ADME
# conditions used: rat liver microsomes, 30 min incubation, NADPH regenerating system, potassium phosphate buffer pH 7.4, 37 °C, 5 min pre-incubation, LC-qTOF-MS
parameter measured: remaining at 0.5 h (%)
Supply the numeric figure in %, leaving out any unit text.

Quick one: remaining at 0.5 h of CC[C@H](C)[C@@H]1NC(=O)CNC(=O)[C@@H]2Cc3c([nH]c4cc(O)ccc34)[S@+]([O-])C[C@H](NC(=O)CNC1=O)C(=O)N[C@@H](CC(N)=O)C(=O)N1C[C@H](O)C[C@H]1C(=O)N[C@@H]([C@@H](C)[C@@H](O)CO)C(=O)N2 [α-amanitin] ?
93.1

---

# method summary: in vivo
# Format: in vivo, rat
# conditions used: rat, in vivo; male SD rats, IV bolus 1 mg/kg, plasma, NCA, n = 4
# Protocol: The above developed LC-qTOF-MS method was applied to obtain the PK parameters after IV and PO administration in rat. Most of the PK samples were within the qualified calibration curve, except the 2 min-time point samples in the IV group which were slightly above the upper limit of quantification (ULOQ). […] The PK parameters were calculated with the non-compartmental analysis (NCA) using WinNonlin® version 8.1.0 (Certara, Princeton, NJ, USA) and the results are summarized in Table 6. […]
parameter measured: half-life
Answer format: number, then unit.

Quick one: half-life of CC[C@H](C)[C@@H]1NC(=O)CNC(=O)[C@@H]2Cc3c([nH]c4cc(O)ccc34)[S@+]([O-])C[C@H](NC(=O)CNC1=O)C(=O)N[C@@H](CC(N)=O)C(=O)N1C[C@H](O)C[C@H]1C(=O)N[C@@H]([C@@H](C)[C@@H](O)CO)C(=O)N2 [α-amanitin] ?
22.3 min

---

# method summary: in vivo
# Format: in vivo, rat
# conditions used: rat, in vivo; male SD rats, IV bolus 1 mg/kg, plasma, NCA, n = 4; 2 min samples extrapolated above ULOQ
parameter measured: Cmax (ng/mL)
Supply the numeric figure in ng/mL, leaving out any unit text.

Quick one: Cmax of CC[C@H](C)[C@@H]1NC(=O)CNC(=O)[C@@H]2Cc3c([nH]c4cc(O)ccc34)[S@+]([O-])C[C@H](NC(=O)CNC1=O)C(=O)N[C@@H](CC(N)=O)C(=O)N1C[C@H](O)C[C@H]1C(=O)N[C@@H]([C@@H](C)[C@@H](O)CO)C(=O)N2 ?
2290

---

# method summary: Semi-mass balance study in rats
# Format: in vivo, rat
# conditions used: Sprague-Dawley, rat; bile duct cannulated rats, IV bolus 1 mg/kg, collection 0–48 h, excreted amount/administered amount, unchanged α-amanitin, LC-qTOF-MS; read-out: Recovery in bile
parameter measured: dose excreted (%)
Supply the numeric figure in %, leaving out any unit text.

Quick one: dose excreted of CC[C@H](C)[C@@H]1NC(=O)CNC(=O)[C@@H]2Cc3c([nH]c4cc(O)ccc34)[S@+]([O-])C[C@H](NC(=O)CNC1=O)C(=O)N[C@@H](CC(N)=O)C(=O)N1C[C@H](O)C[C@H]1C(=O)N[C@@H]([C@@H](C)[C@@H](O)CO)C(=O)N2 ?
1

---

# method summary: In vitro metabolic stability in rat liver microsomes
# Type: in vitro ADME
# conditions used: rat liver microsomes, in vitro half-life, ln2/k from slope of ln(Remaining %) vs incubation time 0-60 min, NADPH, pH 7.4, 37 °C
parameter measured: half-life (h)
Supply the numeric figure in h, leaving out any unit text.

Quick one: half-life of CC[C@H](C)[C@@H]1NC(=O)CNC(=O)[C@@H]2Cc3c([nH]c4cc(O)ccc34)[S@+]([O-])C[C@H](NC(=O)CNC1=O)C(=O)N[C@@H](CC(N)=O)C(=O)N1C[C@H](O)C[C@H]1C(=O)N[C@@H]([C@@H](C)[C@@H](O)CO)C(=O)N2 [α-amanitin] ?
7.45

---

# method summary: in vivo
# Format: in vivo, rat
# conditions used: rat, in vivo; male SD rats, IV bolus 1 mg/kg, plasma, NCA, n = 4
parameter measured: AUC(0-t) (ng·h/mL)
Supply the numeric figure in ng·h/mL, leaving out any unit text.

Quick one: AUC(0-t) of CC[C@H](C)[C@@H]1NC(=O)CNC(=O)[C@@H]2Cc3c([nH]c4cc(O)ccc34)[S@+]([O-])C[C@H](NC(=O)CNC1=O)C(=O)N[C@@H](CC(N)=O)C(=O)N1C[C@H](O)C[C@H]1C(=O)N[C@@H]([C@@H](C)[C@@H](O)CO)C(=O)N2 ?
1170

These measurements were taken from paper PMC9740789.
